Documented binary diffusion coefficient across a set of molecules
Assay Comment: xn = mol fraction of the nth substance listed
Measurement Parameters: 283 K; 101 kPa; Liquid; x1 = 0

>  <Molecule>
CCCCn1cc[n+](C)c1.F[B-](F)(F)F [1-butyl-3-methylimidazolium tetrafluoroborate] + O

>  <Unit Text>
m2/s

>  <binary diffusion coefficient>
7.7e-10

$$$$
>  <Molecule>
CCCCCC[n+]1ccn(C)c1.O=S(=O)([N-]S(=O)(=O)C(F)(F)F)C(F)(F)F + CO

>  <Unit Text>
m2/s

>  <binary diffusion coefficient>
1.05e-09

$$$$
>  <Molecule>
CCCC[n+]1ccn(C)c1.O=S(=O)([N-]S(=O)(=O)C(F)(F)F)C(F)(F)F + O

>  <Unit Text>
m2/s

>  <binary diffusion coefficient>
6e-10

$$$$
>  <Molecule>
CCCCCCCCn1cc[n+](C)c1.O=S(=O)([N-]S(=O)(=O)C(F)(F)F)C(F)(F)F + CO

>  <Unit Text>
m2/s

>  <binary diffusion coefficient>
9.9e-10

$$$$
>  <Molecule>
CCCCCCCCn1cc[n+](C)c1.O=S(=O)([N-]S(=O)(=O)C(F)(F)F)C(F)(F)F + O

>  <Unit Text>
m2/s

>  <binary diffusion coefficient>
5.7e-10

$$$$
>  <Molecule>
CCn1cc[n+](C)c1.O=S(=O)([N-]S(=O)(=O)C(F)(F)F)C(F)(F)F + CC#N

>  <Unit Text>
m2/s

>  <binary diffusion coefficient>
1.79e-09

$$$$
>  <Molecule>
CCCC[n+]1ccn(C)c1.O=S(=O)([N-]S(=O)(=O)C(F)(F)F)C(F)(F)F + CO

>  <Unit Text>
m2/s

>  <binary diffusion coefficient>
1.11e-09

$$$$
>  <Molecule>
CCCC[n+]1ccn(C)c1.O=S(=O)([N-]S(=O)(=O)C(F)(F)F)C(F)(F)F + CC#N

>  <Unit Text>
m2/s

>  <binary diffusion coefficient>
1.7e-09

$$$$

----------
Property: binary diffusion coefficient; scope: individual compounds
Assay Comment: xn = mol fraction of the nth substance listed
Measurement Parameters: 323 K; 101 kPa; Liquid; x1 = 0
Metric: binary diffusion coefficient (m2/s)

>  <Compound>
CCCCCCCCn1cc[n+](C)c1.O=S(=O)([N-]S(=O)(=O)C(F)(F)F)C(F)(F)F + CC#N

>  <Metric>
binary diffusion coefficient

>  <Result>
2.57e-09

$$$$
>  <Compound>
CCCCCCCCn1cc[n+](C)c1.O=S(=O)([N-]S(=O)(=O)C(F)(F)F)C(F)(F)F + CO

>  <Metric>
binary diffusion coefficient

>  <Result>
1.83e-09

$$$$
>  <Compound>
CCCCn1cc[n+](C)c1.[Cl-] [1-butyl-3-methylimidazolium chloride] + O

>  <Metric>
binary diffusion coefficient

>  <Result>
2.01e-09

$$$$
>  <Compound>
CCCCCCCCn1cc[n+](C)c1.O=S(=O)([N-]S(=O)(=O)C(F)(F)F)C(F)(F)F + O

>  <Metric>
binary diffusion coefficient

>  <Result>
1.31e-09

$$$$
>  <Compound>
CCCC[n+]1ccn(C)c1.O=S(=O)([N-]S(=O)(=O)C(F)(F)F)C(F)(F)F + CC#N

>  <Metric>
binary diffusion coefficient

>  <Result>
3.07e-09

$$$$
>  <Compound>
CCn1cc[n+](C)c1.O=S(=O)([N-]S(=O)(=O)C(F)(F)F)C(F)(F)F + CC#N

>  <Metric>
binary diffusion coefficient

>  <Result>
3.15e-09

$$$$
>  <Compound>
CCn1cc[n+](C)c1.O=S(=O)([N-]S(=O)(=O)C(F)(F)F)C(F)(F)F + CO

>  <Metric>
binary diffusion coefficient

>  <Result>
2.3e-09

$$$$
>  <Compound>
CCCCCC[n+]1ccn(C)c1.O=S(=O)([N-]S(=O)(=O)C(F)(F)F)C(F)(F)F + O

>  <Metric>
binary diffusion coefficient

>  <Result>
1.39e-09

$$$$
>  <Compound>
CCCCCC[n+]1ccn(C)c1.O=S(=O)([N-]S(=O)(=O)C(F)(F)F)C(F)(F)F + CC#N

>  <Metric>
binary diffusion coefficient

>  <Result>
2.74e-09

$$$$
>  <Compound>
CCCCCC[n+]1ccn(C)c1.O=S(=O)([N-]S(=O)(=O)C(F)(F)F)C(F)(F)F + CO

>  <Metric>
binary diffusion coefficient

>  <Result>
1.99e-09

$$$$
>  <Compound>
CCn1cc[n+](C)c1.O=S(=O)([N-]S(=O)(=O)C(F)(F)F)C(F)(F)F + O

>  <Metric>
binary diffusion coefficient

>  <Result>
1.55e-09

$$$$
>  <Compound>
CCCC[n+]1ccn(C)c1.O=S(=O)([N-]S(=O)(=O)C(F)(F)F)C(F)(F)F + O

>  <Metric>
binary diffusion coefficient

>  <Result>
1.47e-09

$$$$
>  <Compound>
CCCC[n+]1ccn(C)c1.O=S(=O)([N-]S(=O)(=O)C(F)(F)F)C(F)(F)F + CO

>  <Metric>
binary diffusion coefficient

>  <Result>
2.15e-09

$$$$
>  <Compound>
CCCCn1cc[n+](C)c1.F[B-](F)(F)F [1-butyl-3-methylimidazolium tetrafluoroborate] + O

>  <Metric>
binary diffusion coefficient

>  <Result>
1.97e-09

$$$$

----------
Assay Comment: xn = mol fraction of the nth substance listed
Measurement Parameters: 283 K; 101 kPa; Liquid; x1 = 0
A collection of molecules and their measured binary diffusion coefficient

>  <Molecule>
CCn1cc[n+](C)c1.O=S(=O)([N-]S(=O)(=O)C(F)(F)F)C(F)(F)F + O

>  <Unit Text>
m2/s

>  <binary diffusion coefficient>
6.1e-10

$$$$
>  <Molecule>
CCCCn1cc[n+](C)c1.[Cl-] [1-butyl-3-methylimidazolium chloride] + O

>  <Unit Text>
m2/s

>  <binary diffusion coefficient>
8.3e-10

$$$$
>  <Molecule>
CCCCCC[n+]1ccn(C)c1.O=S(=O)([N-]S(=O)(=O)C(F)(F)F)C(F)(F)F + CC#N

>  <Unit Text>
m2/s

>  <binary diffusion coefficient>
1.67e-09

$$$$
>  <Molecule>
CCCCCC[n+]1ccn(C)c1.O=S(=O)([N-]S(=O)(=O)C(F)(F)F)C(F)(F)F + O

>  <Unit Text>
m2/s

>  <binary diffusion coefficient>
5.8e-10

$$$$
>  <Molecule>
CCn1cc[n+](C)c1.O=S(=O)([N-]S(=O)(=O)C(F)(F)F)C(F)(F)F + CO

>  <Unit Text>
m2/s

>  <binary diffusion coefficient>
1.17e-09

$$$$
>  <Molecule>
CCCCCCCCn1cc[n+](C)c1.O=S(=O)([N-]S(=O)(=O)C(F)(F)F)C(F)(F)F + CC#N

>  <Unit Text>
m2/s

>  <binary diffusion coefficient>
1.62e-09

$$$$

----------
Assay Comment: xn = mol fraction of the nth substance listed
Measurement Parameters: 313 K; 101 kPa; Liquid; x1 = 0
Metric: binary diffusion coefficient (m2/s)

>  <Molecule>
CCn1cc[n+](C)c1.O=S(=O)([N-]S(=O)(=O)C(F)(F)F)C(F)(F)F + CO

>  <Unit Text>
m2/s

>  <Result>
2.03e-09

$$$$
>  <Molecule>
CCn1cc[n+](C)c1.O=S(=O)([N-]S(=O)(=O)C(F)(F)F)C(F)(F)F + CC#N

>  <Unit Text>
m2/s

>  <Result>
2.78e-09

$$$$
>  <Molecule>
CCCCCC[n+]1ccn(C)c1.O=S(=O)([N-]S(=O)(=O)C(F)(F)F)C(F)(F)F + CC#N

>  <Unit Text>
m2/s

>  <Result>
2.51e-09

$$$$
>  <Molecule>
CCCCCCCCn1cc[n+](C)c1.O=S(=O)([N-]S(=O)(=O)C(F)(F)F)C(F)(F)F + O

>  <Unit Text>
m2/s

>  <Result>
1.05e-09

$$$$
>  <Molecule>
CCCC[n+]1ccn(C)c1.O=S(=O)([N-]S(=O)(=O)C(F)(F)F)C(F)(F)F + O

>  <Unit Text>
m2/s

>  <Result>
1.16e-09

$$$$
>  <Molecule>
CCn1cc[n+](C)c1.O=S(=O)([N-]S(=O)(=O)C(F)(F)F)C(F)(F)F + O

>  <Unit Text>
m2/s

>  <Result>
1.27e-09

$$$$
>  <Molecule>
CCCC[n+]1ccn(C)c1.O=S(=O)([N-]S(=O)(=O)C(F)(F)F)C(F)(F)F + CO

>  <Unit Text>
m2/s

>  <Result>
1.88e-09

$$$$
>  <Molecule>
CCCCCC[n+]1ccn(C)c1.O=S(=O)([N-]S(=O)(=O)C(F)(F)F)C(F)(F)F + CO

>  <Unit Text>
m2/s

>  <Result>
1.64e-09

$$$$
>  <Molecule>
CCCCCCCCn1cc[n+](C)c1.O=S(=O)([N-]S(=O)(=O)C(F)(F)F)C(F)(F)F + CO

>  <Unit Text>
m2/s

>  <Result>
1.59e-09

$$$$
>  <Molecule>
CCCC[n+]1ccn(C)c1.O=S(=O)([N-]S(=O)(=O)C(F)(F)F)C(F)(F)F + CC#N

>  <Unit Text>
m2/s

>  <Result>
2.7e-09

$$$$
>  <Molecule>
CCCCCCCCn1cc[n+](C)c1.O=S(=O)([N-]S(=O)(=O)C(F)(F)F)C(F)(F)F + CC#N

>  <Unit Text>
m2/s

>  <Result>
2.31e-09

$$$$
>  <Molecule>
CCCCn1cc[n+](C)c1.[Cl-] [1-butyl-3-methylimidazolium chloride] + O

>  <Unit Text>
m2/s

>  <Result>
1.66e-09

$$$$
>  <Molecule>
CCCCn1cc[n+](C)c1.F[B-](F)(F)F [1-butyl-3-methylimidazolium tetrafluoroborate] + O

>  <Unit Text>
m2/s

>  <Result>
1.55e-09

$$$$
>  <Molecule>
CCCCCC[n+]1ccn(C)c1.O=S(=O)([N-]S(=O)(=O)C(F)(F)F)C(F)(F)F + O

>  <Unit Text>
m2/s

>  <Result>
1.15e-09

$$$$
